Ref: the NIST ThermoML archive (doi:10.1016/j.fluid.2012.01.014)

assay.text: cn = amount concentration of the nth substance listed, in mol/dm3
conditions: 293 K, Ring tensiometer, c1 = 0.000794
experimental.readout: surface tension liquid-gas (mN/m)
The response must be a number in mN/m with no trailing unit.

# molecule, recorded.result
measured = [
    ("CCCCCCCCCCCCCCCC[N+](C)(C)C.[Br-] [N,N,N-trimethyl-1-hexadecanaminium bromide] + O", 39.92),
    ("CCCCCCCCCCCCCCCC[n+]1ccccc1.[Br-] [1-hexadecylpyridinium bromide] + O", 45.3),
]

What value of surface tension liquid-gas has been recorded for this entry: CCCCCCCCCCCCN(C)CC(=O)[O-].[Na+] [sodium laurylsarcosinate] + O
43.6

Repeat for the following molecule: CCCCCCCCCCCCCC[N+](C)(C)C.[Br-] [tetradecyltrimethylammonium bromide] + O
53.7

Repeat for the following molecule: CCCCCCCCCCCCOS(=O)(=O)[O-].[Na+] [sodium dodecyl sulfate] + O
66.25

* * *

assay.text: cn = amount concentration of the nth substance listed, in mol/dm3
conditions: 313 K, Ring tensiometer, c1 = 0.001
// no (0) strictly below 40 mN/m in surface tension liquid-gas; yes (1) otherwise

# compound, class.assignment
records = [
    ("CCCCCCCCCCCC[N+](C)(C)Cc1ccccc1.[Br-] [benzenemethanaminium, N-dodecyl-N,N-dimethyl, bromide] + O", "yes (1)"),
    ("CCCCCCCCCCCCOS(=O)(=O)[O-].[Na+] [sodium dodecyl sulfate] + O", "yes (1)"),
    ("CCCCCCCCCCCCCCCC[n+]1ccccc1.[Br-] [1-hexadecylpyridinium bromide] + O", "yes (1)"),
    ("CCCCCCCCCCCCCC[N+](C)(C)C.[Br-] [tetradecyltrimethylammonium bromide] + O", "yes (1)"),
    ("CCCCCCCCCCCCCCCC[N+](C)(C)C.[Br-] [N,N,N-trimethyl-1-hexadecanaminium bromide] + O", "no (0)"),
]

For the next question, use this compound.
# check: surface tension liquid-gas of CCCCCCCCCCCC[N+](C)(C)CC.[Br-] [dodecyl ethyl dimethylammonium bromide] + O is greater than or equal to 40 mN/m
yes (1)

* * *

assay.text: cn = amount concentration of the nth substance listed, in mol/dm3
conditions: 303 K, Ring tensiometer, c1 = 1e-07
surface tension liquid-gas reference
The response must be a number in mN/m with no trailing unit.

Some compounds with recorded surface tension liquid-gas:
# compound, readout.units, surface tension liquid-gas
measured = [
    ("CCCCCCCCCCCC[N+](C)(C)Cc1ccccc1.[Br-] [benzenemethanaminium, N-dodecyl-N,N-dimethyl, bromide] + O", "mN/m", 71.18),
    ("CCCCCCCCCCCCCCCC[n+]1ccccc1.[Br-] [1-hexadecylpyridinium bromide] + O", "mN/m", 71.18),
]

What value of surface tension liquid-gas has been recorded for this entry: CCCCCCCCCCCCOS(=O)(=O)[O-].[Na+] [sodium dodecyl sulfate] + O
71.19

Repeat for the following compound: CCCCCCCCCCCCCCCCS(=O)(=O)[O-].[Na+] [sodium hexadecylsulfonate] + O
71.19

Repeat for the following compound: CCCCCCCCCCCCCCCC[N+](C)(C)C.[Br-] [N,N,N-trimethyl-1-hexadecanaminium bromide] + O
71.19

Repeat for the following compound: CCCCCCCCCCCCN(C)CC(=O)[O-].[Na+] [sodium laurylsarcosinate] + O
71.19

Repeat for the following compound: CCCCCCCCCCCC[N+](C)(C)CC.[Br-] [dodecyl ethyl dimethylammonium bromide] + O
71.2

* * *

assay.text: cn = amount concentration of the nth substance listed, in mol/dm3
conditions: 293 K, Ring tensiometer, c1 = 0.01
± gives the expanded uncertainty stated by the source.
experimental.readout: surface tension liquid-gas
Don't forget the unit after the value.

Some molecules with recorded surface tension liquid-gas:
# molecule, surface tension liquid-gas
data = [
    ("CCCCCCCCCCCC[N+](C)(C)Cc1ccccc1.[Br-] [benzenemethanaminium, N-dodecyl-N,N-dimethyl, bromide] + O", "34.4 ± 1.1 mN/m"),
    ("CCCCCCCCCCCCOS(=O)(=O)[O-].[Na+] [sodium dodecyl sulfate] + O", "38.4 ± 1.1 mN/m"),
    ("CCCCCCCCCCCCN(C)CC(=O)[O-].[Na+] [sodium laurylsarcosinate] + O", "26.5 ± 1.1 mN/m"),
    ("CCCCCCCCCCCC[N+](C)(C)CC.[Br-] [dodecyl ethyl dimethylammonium bromide] + O", "41.5 ± 1.1 mN/m"),
    ("CCCCCCCCCCCCCCCC[n+]1ccccc1.[Br-] [1-hexadecylpyridinium bromide] + O", "43.2 ± 1.1 mN/m"),
]

What value of surface tension liquid-gas has been recorded for this entry: CCCCCCCCCCCCCC[N+](C)(C)C.[Br-] [tetradecyltrimethylammonium bromide] + O
36.3 ± 1.1 mN/m

* * *

surface tension liquid-gas reference
assay.text: cn = amount concentration of the nth substance listed, in mol/dm3
conditions: 303 K, Ring tensiometer, c1 = 0.000794
The response must be a number in mN/m with no trailing unit.

# compound, readout.units, recorded.result
rows = [
    ("CCCCCCCCCCCCN(C)CC(=O)[O-].[Na+] [sodium laurylsarcosinate] + O", "mN/m", 42.91),
    ("CCCCCCCCCCCCOS(=O)(=O)[O-].[Na+] [sodium dodecyl sulfate] + O", "mN/m", 65.21),
    ("CCCCCCCCCCCCCCCC[N+](C)(C)C.[Br-] [N,N,N-trimethyl-1-hexadecanaminium bromide] + O", "mN/m", 39.75),
]

Moving on to the next compound.
What value of surface tension liquid-gas has been recorded for this entry: CCCCCCCCCCCCCCCC[n+]1ccccc1.[Br-] [1-hexadecylpyridinium bromide] + O
44.04

* * *

assay.text: cn = amount concentration of the nth substance listed, in mol/dm3
conditions: 313 K, Ring tensiometer, c1 = 1e-06
± gives the expanded uncertainty stated by the source.
experimental.readout: surface tension liquid-gas
Don't forget the unit after the value.

# compound, surface tension liquid-gas
measured = [
    ("CCCCCCCCCCCCCCCC[N+](C)(C)C.[Br-] [N,N,N-trimethyl-1-hexadecanaminium bromide] + O", "69.52 ± 1.3 mN/m"),
    ("CCCCCCCCCCCCCCCC[n+]1ccccc1.[Br-] [1-hexadecylpyridinium bromide] + O", "69.49 ± 1.3 mN/m"),
    ("CCCCCCCCCCCCCC[N+](C)(C)C.[Br-] [tetradecyltrimethylammonium bromide] + O", "69.48 ± 1.3 mN/m"),
]

Moving on to the next compound.
What value of surface tension liquid-gas has been recorded for this entry: CCCCCCCCCCCC[N+](C)(C)CC.[Br-] [dodecyl ethyl dimethylammonium bromide] + O
69.59 ± 1.3 mN/m

* * *

assay.text: cn = amount concentration of the nth substance listed, in mol/dm3
conditions: 313 K, Ring tensiometer, c1 = 5.01e-06
experimental.readout: surface tension liquid-gas (mN/m)
The response must be a number in mN/m with no trailing unit.

# compound, readout.units, surface tension liquid-gas
rows = [
    ("CCCCCCCCCCCCCC[N+](C)(C)C.[Br-] [tetradecyltrimethylammonium bromide] + O", "mN/m", 69.03),
]

Moving on to the next compound.
What value of surface tension liquid-gas has been recorded for this entry: CCCCCCCCCCCCCCCC[n+]1ccccc1.[Br-] [1-hexadecylpyridinium bromide] + O
69.04

* * *

assay.text: cn = amount concentration of the nth substance listed, in mol/dm3
conditions: 293 K, Ring tensiometer, c1 = 0.001
# note: exactly 40 mN/m is not below, so it is n; use y for surface tension liquid-gas strictly under it

# compound, class.assignment
measured = [
    ("CCCCCCCCCCCCCCCC[n+]1ccccc1.[Br-] [1-hexadecylpyridinium bromide] + O", "n"),
]

Is surface tension liquid-gas strictly under 40 mN/m for the entry CCCCCCCCCCCCOS(=O)(=O)[O-].[Na+] [sodium dodecyl sulfate] + O ?
n

Repeat for the following compound: CCCCCCCCCCCCCCCC[N+](C)(C)C.[Br-] [N,N,N-trimethyl-1-hexadecanaminium bromide] + O
y

Repeat for the following compound: CCCCCCCCCCCC[N+](C)(C)CC.[Br-] [dodecyl ethyl dimethylammonium bromide] + O
n

Repeat for the following compound: CCCCCCCCCCCC[N+](C)(C)Cc1ccccc1.[Br-] [benzenemethanaminium, N-dodecyl-N,N-dimethyl, bromide] + O
n

Repeat for the following compound: CCCCCCCCCCCCCC[N+](C)(C)C.[Br-] [tetradecyltrimethylammonium bromide] + O
n

* * *

assay.text: cn = amount concentration of the nth substance listed, in mol/dm3
conditions: 313 K, Ring tensiometer, c1 = 0.00398
surface tension liquid-gas reference
The response must be a number in mN/m with no trailing unit.

What value of surface tension liquid-gas has been recorded for this entry: CCCCCCCCCCCC[N+](C)(C)CC.[Br-] [dodecyl ethyl dimethylammonium bromide] + O
51.87

Repeat for the following molecule: CCCCCCCCCCCCCC[N+](C)(C)C.[Br-] [tetradecyltrimethylammonium bromide] + O
35.38

Repeat for the following molecule: CCCCCCCCCCCCCCCC[n+]1ccccc1.[Br-] [1-hexadecylpyridinium bromide] + O
43.64
